src = PubChem BioAssay (NCI)

Assay: NCI Yeast Anticancer Drug Screen. Data for the mec2-1 strain (AID 157)
Details: S. cerevisiae mec2-1 strain, at 50.0 µM
Protocol: Growth inhibition of yeast strains with defined genetic alterations is measured as a screen for potential anti-cancer activity. Selected strains with alterations in DNA damage repair or cell cycle control were exposed to compounds and growth inhibition was measured relative to vehicle treated controls. The strain used in this assay is mec2-1
This is part of a sample that, as a whole, favours compounds with a hit. Of some 79,000 tested, about 15% had one in any assay. Calls of active or inactive are those of the source. Rule as the data show it: active = growth inhibition above about 70%; inactive = the rest.
Outcomes: active, inactive

compound=CC(C)COC(=O)c1cc(O)[nH]c(=O)c1 assigned_label=inactive
compound=CC(=O)/C(=C\I)c1ccccc1 assigned_label=active
compound=CNC(=S)N(C)c1ccccc1 assigned_label=inactive
compound="COC(=O)C1CC23CCCC12CC3 (stereo unspecified)" assigned_label=inactive
compound=CC(=O)Nc1ccc(-c2nnc(SCC(=O)Nc3ccccc3)o2)cc1 assigned_label=inactive
compound=CC1(C)NC(=S)N(O)C1(C)C assigned_label=inactive

====

Experiment: NCI Yeast Anticancer Drug Screen. Data for the mec2-1 strain (AID 157)
Conditions: S. cerevisiae mec2-1 strain, at 50.0 µM, hits give high values
The panel holds about 79,000 compounds, 15% with a hit somewhere; the sample as a whole holds those more often.
Each record here notes measured growth inhibition.
Assay Metric: growth inhibition (%)

compound="COc1cc(C2SCC(=O)N2c2ccc(-n3c(-c4ccccc4)nc4ccccc4c3=O)cc2)ccc1O (configuration not stated)" unit_symbol=% result_number=-8.75
compound=Cc1ccsc1C(=O)c1ccccc1[N+](=O)[O-] unit_symbol=% result_number=-13.3
compound="COc1cc(C2c3cc4c(cc3[C@@H](OC3OC5CO[C@@H](C)OC5C(O)C3O)[C@H]3COC(=O)C23)OCO4)cc(OC)c1OC (some centres not stated)" unit_symbol=% result_number=-36.1
compound=Cc1ccc(O)c(O)c1 unit_symbol=% result_number=-13.1
compound=O=C(Nc1cc(Cl)c(Cl)cc1Cl)OCc1ccc2c(c1)OCO2 unit_symbol=% result_number=-32.3
compound="CCCCCN(CCCCC)CC(O)c1cccc2c1cc(Br)c1ccccc12 (configuration not stated)" unit_symbol=% result_number=1.55
compound="O=C1CC2CC(=O)C(S(=O)c3ccccc3)C2C1 (configuration not stated)" unit_symbol=% result_number=11.7
compound="O=C(OCc1ccccc1)C1CCCN1C(=O)C(CSC(c1ccccc1)(c1ccccc1)c1ccccc1)NC(c1ccccc1)(c1ccccc1)c1ccccc1 (configuration not stated)" unit_symbol=% result_number=-1.35
compound=COC(=O)c1cc(O)c(C(=O)OC)s1 unit_symbol=% result_number=-9.75
compound="Cc1ccccc1N1CCOS(=O)OC(C)C1 (configuration not stated)" unit_symbol=% result_number=23.7
compound=O=C(Nc1ccccc1)Sc1ccc(Cl)cc1 unit_symbol=% result_number=-13.2
compound="COCCCC(NC(=O)C(CC(C)C)NC(=O)OCc1ccc(OC)cc1)C(N)=O (configuration not stated)" unit_symbol=% result_number=-21.4

====

Assay: NCI Yeast Anticancer Drug Screen. Data for the mec2-1 strain (AID 157)
Conditions: S. cerevisiae mec2-1 strain, at 50.0 µM, hits give high values
Compounds without any hit were thinned out: in the full panel of roughly 79,000, 15% have a hit.
Each record here notes measured growth inhibition.
Assay Metric: growth inhibition (%)

compound="C1=C(c2ccccc2)NC2=N[C@H]3CCCC[C@@H]3N2C1c1ccccc1 (stereo not given in full)" result_number=10.4
compound="CCCCN(CCCC)CC(O)c1cc(-c2cccc(I)c2)nc2c(Cl)cc(Cl)cc12 (stereo not given)" result_number=4.4
compound="CC1CSC(C)(C)C(=O)N1 (stereo not given)" result_number=14.8
compound=CC1=C(C(=O)Nc2ccccc2C)C(c2ccc(Cl)cc2)C(C(=O)Nc2ccccc2C)=C(C)N1 result_number=2.6
compound=NC(=O)c1ccccn1 result_number=-5.45
compound=O=C/C(Cl)=C\Nc1ccc(C(=O)O)cc1 result_number=2.15
compound=Cc1ccc(S(=O)(=O)N/N=C2\CC[C@H]3[C@@H]4CC=C5C[C@@H](O)CC[C@]5(C)[C@H]4CC[C@]23C)cc1 result_number=95.3
compound=O=C1c2c(ccc3c2CCCC3)CC12Cc1ccccc1C2 result_number=-4.45
compound=Cc1cc(C)c(F)c(C)c1N result_number=17.6
compound=O=C(O)CCSC1(SCCC(=O)O)CCCCC1 result_number=-17.9
compound="CC(=O)N(C(C)=O)N1C(=O)C2C3C=CC(C4CC34)C2C1=O (stereo not given)" result_number=17
compound=O=Cc1ccc(O)cn1 result_number=6.25
compound=c1ccc(N2CCCC2(c2ccccc2)c2ccccc2)cc1 result_number=11.3
compound=C1C[OH+]CC[OH+]CCNCC[OH+]CC[OH+]CCN1.Cl.[Cl-].[Pt+4] result_number=-9.3
compound="COC(=O)C1=NNC(c2ccc(C)cc2)C1 (stereo not given)" result_number=-2.25
compound="CC1(C)C2CC=C(/C=N\\Nc3ccc([N+](=O)[O-])cc3[N+](=O)[O-])C1C2 (stereo not given)" result_number=1.95
compound=O=C(O)CCn1ccc2ccccc21 result_number=-0.55
compound=COC1=C(OC)C(=O)c2cc(SC)c(=O)c(SC)cc2C1=O result_number=-29.2
compound=CC(C)(C)c1ccc(OCCOCCCl)c(Cl)c1 result_number=15.4
compound=O=c1[nH]c2ccc(Br)cc2cc1Br result_number=-9
compound=COc1cccc(OC)c1C result_number=-11.1
compound="N#CCN1c2ccccc2CCC1Cl (stereo not given)" result_number=-17.6
compound=O=c1cccc(CCc2ccccc2)[nH]1 result_number=-9.35
compound=C=CCON(C)c1ccc([N+](=O)[O-])cc1[N+](=O)[O-] result_number=-0.9
compound="CC(NNC(=S)N1CCCC1)c1cccc[n+]1[O-] (stereo not given)" result_number=-2.85

====

Experiment: NCI Yeast Anticancer Drug Screen. Data for the bub3 strain (AID 167)
Settings: S. cerevisiae bub3 mutant strain, at 50.0 µM, hits give high values
Compounds without any hit were thinned out: in the full panel of roughly 79,000, 15% have a hit.
Each record here notes measured growth inhibition.
Assay Metric: growth inhibition (%)

compound=Cc1occc1C(=S)Nc1ccc(Cl)c(OCC(=O)OC(C)(C)C)c1 unit_symbol=% result_number=46.6
compound="CC(O)c1cc2c(s1)C(=O)c1sccc1C2=O (stereo unspecified)" unit_symbol=% result_number=91.9
compound=N#CC(C#N)SCc1ccccc1 unit_symbol=% result_number=9.3
compound=Cn1c(=O)nc(N)n(NC(=O)CCl)c1=O unit_symbol=% result_number=-6.6
compound=c1ccc2cc(SSc3ccc4ccccc4c3)ccc2c1 unit_symbol=% result_number=-17.2
compound=CCN(c1ccccc1)c1nsc(Cl)n1 unit_symbol=% result_number=8.25
compound="CCOc1cc2c(cc1O)CC[C@@H]1[C@@H]2CC[C@]2(C)C(N)CC[C@@H]12 (stereo partly specified)" unit_symbol=% result_number=-20.1
compound=CCOc1ccc(-n2c(O)c(N=Nc3ccccc3OC)c(=O)n(-c3ccc(OC)cc3)c2=S)cc1 unit_symbol=% result_number=-4.8
compound="O=C(O)C1CCC(C(=O)O)CC1.[NH-]C1CCCCC1[NH-].[Pt+2] (stereo unspecified)" unit_symbol=% result_number=-19.9
compound=N#CCCOCC(COCCC#N)(COCCC#N)COCCC#N unit_symbol=% result_number=-12.9
compound=O unit_symbol=% result_number=-16.8

====

Assay: NCI Yeast Anticancer Drug Screen. Data for the mlh1 rad18 strain (AID 175)
Conditions: S. cerevisiae mlh1 rad18 strain growth inhibition; at 50.0 µM
The panel holds about 79,000 compounds, 15% with a hit somewhere; the sample as a whole holds those more often. Active and inactive are the calls of the source. Rule as the data show it: active = growth inhibition above about 70%; inactive = the rest.
Outcomes: active, inactive

compound=COc1ccc([N+](=O)[O-])c(C#N)c1 assigned_label=inactive
compound=CN(CCO)c1cnn(CCO)c(=O)c1Cl assigned_label=inactive
compound="NC(CSC(=O)c1ccccc1)C(=O)O (centres undefined)" assigned_label=inactive
compound="CC1CN(C(=S)Nc2ccccc2)CCN1C(=S)Nc1ccccc1 (centres undefined)" assigned_label=inactive
compound="COC(=O)CC(C)(O)CCCC(C)C (centres undefined)" assigned_label=inactive
compound=COc1ccc(COC(=O)Oc2ccc(Cl)cc2)cc1OC assigned_label=active
compound="CC(C)NC(=O)C1C2CCC(CC2)C1C(=O)NC(C)C (centres undefined)" assigned_label=inactive
compound="CC1C2CC(C(S(=O)(=O)O)C2=O)C1(C)C (centres undefined)" assigned_label=inactive
compound="CNC(=O)/C=C/C1=CN2C(=O)c3ccc(C)c(O)c3NC(OC)C2C1 (centres undefined)" assigned_label=active
compound=Cc1c(/C=N/O)nc2ccccc2c1C(=O)O assigned_label=inactive
compound=[Cl][Bi]([O]c1ccccn1)[O]c1ccccn1 assigned_label=inactive
compound=Nc1ccc2cccc(O)c2c1 assigned_label=inactive
compound="COc1cc2c(cc1OC)C(CC(=O)NN=C(C)C)NCC2 (centres undefined)" assigned_label=inactive
compound=Cc1csnn1 assigned_label=inactive
